system: HEK293; test: Cytotoxicity against human HEK293 cells after 72 hrs by […] CellTiterGlo reagent assay; format: cell-based; conditions: HEK293, 72 h
pEC50: −log10 of the molar value.
reported metric: pEC50

See these solved cases before continuing.
CC(C)N(Cc1ccccc1OCCCCCC(=O)O)C(=O)c1ccc(-c2ccc3c(c2)OCO3)cc1 :: < 4.58
CCOC(=O)CCCCCOc1cccc(CN(C(=O)c2ccc(-c3ccc4ccccc4c3)cc2)C(C)C)c1 :: < 4.58
CCOC(=O)CCCCCOc1cccc(CN(C(=O)c2ccc(-c3cccc4ccccc34)cc2)C(C)C)c1 :: < 4.58
CCOC(=O)CCCCCOc1cccc(CNC(C)C)c1 :: < 4.58
CCOC(=O)CCCCCOc1cccc(CN(C(=O)c2ccc(-c3cccc(OC)c3)cc2)C(C)C)c1 :: < 4.68
CC(C)N(Cc1cccc(OCCCCCC(=O)O)c1)C(=O)c1ccc(-c2cccc(O)c2)cc1 :: < 4.58
COc1cc(OC)cc(-c2ccc(C(=O)N(Cc3cccc(OCCCCCC(=O)O)c3)C(C)C)cc2)c1 :: < 4.58
CC(C)N(Cc1cccc(OCCCCCC(=O)O)c1)C(=O)c1ccc(-c2cccc3ccccc23)cc1 :: < 4.58
COc1ccc(-c2cc(C(=O)O)c3ccccc3n2)cc1OC :: < 4.58
COc1cc2c(cc1OC)C1(CC=CCC1)N(C(C)=O)CC2 (centres undefined) :: < 4.89

Each compound below has a recorded value; state its pEC50.
1. CCOC(=O)CCCCCOc1cccc(CN(C(=O)c2ccc(-c3ccsc3)cc2)C(C)C)c1
2. CC(C)N(Cc1cccc(OCCCCCC(=O)O)c1)C(=O)c1ccc(-c2ccoc2)cc1
3. CCOC(=O)CCCCCOc1ccccc1C=O
4. C#CCCC(=O)NCCc1ccc(OC)c(OC)c1
5. CCOC(=O)CCCCCOc1cccc(CN(C(=O)c2ccc(-c3ccncc3)cc2)C(C)C)c1
6. CC(C)N(Cc1cccc(OCCCCCC(=O)O)c1)C(=O)c1ccc(-c2cccc(N(C)C)c2)cc1

1. < 4.58
2. < 4.58
3. < 4.58
4. < 4.89
5. < 4.58
6. < 4.58

====

test system: HEK293; assay: Cytotoxicity against human HEK293 cells after 72 hrs by […] CellTiterGlo reagent assay; assay type: cell-based; details: HEK293, 72 h
pEC50: −log10 of the molar value.
reported metric: pEC50

Each compound below has a recorded value; state its pEC50.
1. CCOC(=O)CCCCCOc1cccc(CN(C(=O)c2ccc(-c3cc(OC)cc(OC)c3)cc2)C(C)C)c1
2. CCOC(=O)CCCCCOc1cccc(CN(C(=O)c2ccc(-c3cccc(OCC)c3)cc2)C(C)C)c1
3. CC(C)N(Cc1cccc(OCCCCCC(=O)O)c1)C(=O)c1ccc(-c2cccc(-c3ccccc3)c2)cc1

< 4.58
< 4.65
< 4.58

====

tested on: HEK293; test: Cytotoxicity against human HEK293 cells after 72 hrs by […] CellTiterGlo reagent assay; format: cell-based; details: HEK293, 72 h
Provide the reported EC50 of each item.

See these solved cases before continuing.
C=CCCC(=O)NCC1(c2ccc3c(c2)OCO3)OCCO1 :: > 13 µM
CCOC(=O)CCCCCOc1cccc(CN(C(=O)c2ccccc2)C(C)C)c1 :: > 26 µM

Turning now to a further molecule:
State, in one line, measured EC50 of "[N-]=[N+]=NC[C@H](O)c1ccc2c(c1)OCO2" > 13 µM

====

test system: HEK293; assay: Cytotoxicity against human HEK293 cells after 72 hrs by […] CellTiterGlo reagent assay; type: cell-based; conditions: HEK293, 72 h
Provide the reported EC50 of each item.

See these solved cases before continuing.
CCOC(=O)CCCCCOc1cccc(CN(C(=O)c2ccc(-c3ccc4c(c3)OCO4)cc2)C(C)C)c1 :: > 22.6 µM
CCOC(=O)CCCCCOc1cccc(CN(C(=O)c2ccc(-c3cc(OC)ccc3F)cc2)C(C)C)c1 :: > 26 µM
O=C(O)c1cc(-c2ccco2)nc2ccccc12 :: > 26 µM
COC(=O)c1cc(-c2cccs2)nc2ccccc12 :: > 26 µM
CC(C)N(Cc1cccc(OCCCCCC(=O)O)c1)C(=O)c1ccc(-c2cccc(Oc3ccccc3)c2)cc1 :: > 18.8 µM
CC(=O)c1cccc(-c2ccc(C(=O)N(Cc3cccc(OCCCCCC(=O)O)c3)C(C)C)cc2)c1 :: > 26 µM

Each molecule below has a recorded value; state its EC50.
1. CCCN(Cc1ccc(OCCCCCC(=O)OCC)cc1)C(=O)c1ccc(-c2ccc3c(c2)OCO3)cc1
2. C=CCCC1=NCC(O[Si](C)(C)C(C)(C)C)c2cc(OC)c(OC)cc21 (stereo not drawn)
3. CCOC(=O)CCCCCOc1cccc(CN(C(=O)c2ccc(-c3cccc(Oc4ccccc4)c3)cc2)C(C)C)c1
4. CCOC(=O)CCCCCOc1cccc(CN(C(=O)c2ccc(-c3cccc(C(F)(F)F)c3)cc2)C(C)C)c1
5. CCOc1cccc(-c2ccc(C(=O)N(Cc3cccc(OCCCCCC(=O)O)c3)C(C)C)cc2)c1

1. > 26 µM
2. > 13 µM
3. > 19.7 µM
4. > 26 µM
5. > 20.9 µM

Each molecule below has a recorded value; state its EC50.
1. CCOC(=O)CCCCCOc1cccc(CN(C(=O)c2ccc(-c3ccc4[nH]ccc4c3)cc2)C(C)C)c1
2. CCOC(OCC)C(=O)NCCc1ccc(OC)c(OC)c1
3. CC(C)(C)OC(=O)NCC(OC(=O)C(O)CO)c1ccc2c(c1)OCO2 (stereo not drawn)

1. > 26 µM
2. > 13 µM
3. > 13 µM

Each molecule below has a recorded value; state its EC50.
1. CCOC(=O)CCCCCOc1cccc(CN(C(=O)c2ccc(-c3cc(F)cc(OC)c3)cc2)C(C)C)c1
2. CCOC(=O)CCCCCOc1ccccc1CN(C(=O)c1ccc(-c2ccc3c(c2)OCO3)cc1)C(C)C

1. > 26 µM
2. > 26 µM

Each molecule below has a recorded value; state its EC50.
1. CC(C)N(Cc1cccc(OCCCCCC(=O)O)c1)C(=O)c1ccc(-c2cc3ccccc3n2S(=O)(=O)c2ccccc2)cc1
2. CC(C)N(Cc1cccc(OCCCCCC(=O)O)c1)C(=O)c1ccc(-c2ccc3c(c2)OCCO3)cc1
3. CC(C)N(Cc1cccc(OCCCCCC(=O)O)c1)C(=O)c1ccc(-c2cccc(F)c2)cc1

> 26 µM
> 21.9 µM
> 26 µM

Each molecule below has a recorded value; state its EC50.
1. CCOC(=O)CCCCCOc1cccc(CN(C(=O)c2ccc(-c3cccnc3)cc2)C(C)C)c1
2. CCOC(=O)/C=C1\NCCc2cc3c(cc21)OCO3
3. COc1ccc(CCNC(=O)CCO[Si](C)(C)C(C)(C)C)cc1OC
4. CCOC(=O)CCCCCOc1cccc(CN(C(=O)c2ccc(-c3ccc4cc[nH]c4c3)cc2)C(C)C)c1

1. > 26 µM
2. > 13 µM
3. > 13 µM
4. > 26 µM

====

test system: HEK293; assay: Cytotoxicity against human HEK293 cells after 72 hrs by […] CellTiterGlo reagent assay; format: cell-based; settings: HEK293, 72 h
pEC50: −log10 of the molar value.
reported metric: pEC50

See these solved cases before continuing.
CCOC(=O)CC(=O)NCCc1ccc(OC)c(OC)c1 :: < 4.89
CC(C)N(Cc1cccc(OCCCCCC(=O)O)c1)C(=O)c1ccc(-c2ccsc2)cc1 :: < 4.58
CCOC(=O)CCCCCOc1cccc(CN(C(=O)c2ccc(-c3ccc4c(c3)OCCO4)cc2)C(C)C)c1 :: < 4.61
CCCNCc1ccccc1OCCCCCC(=O)OCC :: < 4.58
CC(C)N(Cc1cccc(OCCCCCC(=O)O)c1)C(=O)c1ccc(-c2cccc(C(F)(F)F)c2)cc1 :: < 4.58

Turning now to a further compound:
State, in one line, measured pEC50 of "CC(C)N(Cc1ccc(OCCCCCC(=O)O)cc1)C(=O)c1ccc(-c2ccc3c(c2)OCO3)cc1" < 4.58
